# System: CEM cells HIV-1 protection, formazan growth assay
# Experiment Notes: NCI AIDS Antiviral Assay
pEC50: −log10 of the molar value.
Below is a list of entries, each paired with its recorded pEC50 value.

Examples with their reported pEC50 follow.
{"columns": ["Molecule", "pEC50"],
 "data": [
  ["c1ccc2c(c1)Nc1ccccc1[P+]21c2ccccc2Nc2ccccc21", "< 5.70"],
  ["NCCCNc1ccc2c(c1)[n+]([O-])c1ccccc1[n+]2[O-]", "< 3.36"],
  ["CCOC(=O)c1nc2cc(C(F)(F)F)ccc2nc1Oc1ccc(C(=O)OC)cc1", "< 3.70"],
  ["C=CCCCCOCOCCOC", "< 3.86"],
  ["COc1cc2c3c(cccc3c1)C(=O)N(CCN(C)C)C2=O", "< 3.70"]
]}

Provide only the value of recorded pEC50 for O=C1CC2C(CC3OC(=O)C4C3C23COC4(O)C(O)C3)c2occc21 (stereo not drawn) < 3.70

Provide only the value of recorded pEC50 for CC(C)CC(NC(=O)OCc1ccccc1)C(=O)NCCCCC(N)C(=O)NC(CCCCNC(=O)C(CC(C)C)NC(=O)OCc1ccccc1)C(=O)NC(CCCCNC(=O)C(CC(C)C)NC(=O)OCc1ccccc1)C(=O)NC(CCCCNC(=O)C(CC(C)C)NC(=O)OCc1ccccc1)C(=O)NC(CCCCNC(=O)C(CC(C)C)NC(=O)OCc1ccccc1)C(=O)NC(CCCCNC(=O)C(CC(C)C)NC(=O)OCc1ccccc1)C(=O)O (stereo not drawn) < 4.00

Provide only the value of recorded pEC50 for O=C(O)c1cc(=O)c2cc3c(cc2o1)OCc1ccccc1-3 < 4.03
